As shown below, each of these compounds has a reported Cl value.
Species on record: Rattus norvegicus
Assay: Open TG-GATES - Regimen: Daily Repeat
Type: toxicity, organism-based, Sprague-Dawley
Set-up: regimen Daily Repeat, gender Male, age 6 weeks
Details: in vivo, po, 300 mg/kg, […], tissue Plasma, route gavage, dose level Middle, time 14 day
Enter your answer as a number in meq/L; do not include the unit.

COMPOUND	Cl [meq/L]
CCCCNC(=O)NS(=O)(=O)c1ccc(C)cc1 [TOLBUTAMIDE]	104.2

Q: Consider the compound shown here: `O=C(O)c1ccccc1Nc1ccccc1` What is its recorded Cl?
A: 104

Q: Consider the compound shown here: `CC(=O)[C@@]1(O)CC[C@H]2[C@@H]3C=C(Cl)C4=CC(=O)CC[C@]4(C)[C@H]3CC[C@@]21C` What is its recorded Cl?
A: 106.8

Q: Consider the compound shown here: CC(S)C(=O)NCC(=O)O (centres undefined) What is its recorded Cl?
A: 106.8

###

Organism: Rattus norvegicus
Test: Open TG-GATES - Regimen: Single
Assay type: toxicity, organism-based, Sprague-Dawley
Parameters: regimen Single, gender Male, age 6 weeks
Conditions: in vivo, po, 0 mg/kg, 24 h, tissue Plasma, route gavage, dose level Control
ASSAY_READOUT: gamma-GTP (IU/L)
Enter your answer as a number in IU/L; do not include the unit.

COMPOUND	UOM	gamma-GTP
O=C(O)c1ccccc1Nc1ccccc1 [FENAMIC ACID]	IU/L	1
CCN(CC)C(=S)SSC(=S)N(CC)CC	IU/L	1.8
CCCCNC(=O)NS(=O)(=O)c1ccc(C)cc1 [TOLBUTAMIDE]	IU/L	1.2
COc1ccc([C@@H]2Sc3ccccc3N(CCN(C)C)C(=O)[C@@H]2OC(C)=O)cc1 [DILTIAZEM]	IU/L	1

Next up:
Q: Consider the compound shown here: CN(CCOc1ccc(CC2SC(=O)NC2=O)cc1)c1ccccn1.O=C(O)/C=C\C(=O)O (stereo not given) [ROSIGLITAZONE MALEATE] What is its recorded gamma-GTP?
A: 1

###

Organism: Rattus norvegicus
Assay: Open TG-GATES - Regimen: Single
Format: toxicity, organism-based, Sprague-Dawley
Set-up: regimen Single, gender Male, age 6 weeks
Settings: in vivo, po, 0 mg/kg, 3 h, tissue Blood, route gavage, dose level Control
ASSAY_READOUT: Mono (%)
Enter your answer as a number in %; do not include the unit.

Known results for compounds:
COMPOUND	Mono, %
CCN(CC)C(=S)SSC(=S)N(CC)CC	2.6
CC(=O)[C@@]1(O)CC[C@H]2[C@@H]3C=C(Cl)C4=CC(=O)CC[C@]4(C)[C@H]3CC[C@@]21C	2.2
COc1ccc([C@@H]2Sc3ccccc3N(CCN(C)C)C(=O)[C@@H]2OC(C)=O)cc1	3.4
Nc1ccc(Cc2ccc(N)cc2)cc1	3
C=C[C@H]1C[N@@]2CC[C@H]1C[C@@H]2[C@@H](O)c1ccnc2ccc(OC)cc12	1.8

Next up:
Q: Consider the compound shown here: CN(CCOc1ccc(CC2SC(=O)NC2=O)cc1)c1ccccn1.O=C(O)/C=C\C(=O)O (stereo not given) [ROSIGLITAZONE MALEATE] What is its recorded Mono?
A: 9.2

###

As shown below, each of these molecules has a reported gamma-GTP value.
Organism: Rattus norvegicus
Assay: Open TG-GATES - Regimen: Single
Type: toxicity, organism-based, Sprague-Dawley
Parameters: regimen Single, gender Male, age 6 weeks
Details: in vivo, po, 0 mg/kg, 9 h, tissue Plasma, route gavage, dose level Control
Enter your answer as a number in IU/L; do not include the unit.

MOLECULE	UOM	READOUT_VALUE
O=c1ccc2ccccc2o1	IU/L	1.6

Q: Consider the molecule shown here: CCCCNC(=O)NS(=O)(=O)c1ccc(C)cc1 [TOLBUTAMIDE] What is its recorded gamma-GTP?
A: 1
